Catalogue of pIC50 values
System: CEM cells HIV-1 protection, formazan growth assay
Assay: NCI AIDS Antiviral Assay
Conditions: measured here: growth of uninfected CEM cells
pIC50: −log10 of the molar value.

These solved cases illustrate the format of a correct answer.
compound: Cc1c(O)cc2c(c1O)C(=O)CC(c1ccc(O)cc1)O2 (stereo not given)
pIC50: 4.03
//
compound: CN(C)c1nc2nonc2nc1Nc1ccccc1
pIC50: < 3.70
//
compound: N#Cc1cc2c(n(C3OC(CO)C(O)C(O)C3O)c1=S)CCCCCC2 (stereo not given)
pIC50: < 3.70
//
compound: CCC(=O)NC(C(=O)NC(C(=O)NC(CC(C)C)C(O)CC(=O)NC(C)C(=O)NC(CC(C)C)C(O)CC(=O)O)C(C)C)C(C)C (stereo not given)
pIC50: < 5.12
//
compound: O=[N+]([O-])c1ccc(C2=NOC(c3ccccc3)N2C23CC4CC(CC(C4)C2)C3)cc1 (stereo not given)
pIC50: 3.97
//
compound: C=Cc1ccccc1N=NC(C(=O)OC)=P(c1ccccc1)(c1ccccc1)c1ccccc1
pIC50: < 5.93
//
compound: CCOC(=O)C1(Br)C(c2ccccc2)NC(=O)N(C2OC(COC(=O)c3ccccc3)C(OC(=O)c3ccccc3)C2OC(=O)c2ccccc2)C1(C)Br (stereo not given)
pIC50: < 4.80
//
compound: O=C(Oc1ccccc1C(=O)O)c1ccccc1O
pIC50: < 3.70

Quick note, pIC50 for O=C1C2C3CCC(O3)C2C(=O)N1N1C(=O)C2C3CCC(O3)C2C1=O (stereo not given) landed at 4.36

Looking up Cc1nc2sccn2c1C(=O)N/N=C1\SCC(=O)N1C , I found its pIC50 recorded as < 3.37
